The measurements presented in this section are drawn from ChEMBL document CHEMBL5303304.

Test system: U2OS
Assay: Incucyte cell viability with U2OS; also: unitless GR value; below 1 slowed growth and below 0 cell loss
Assay type: toxicity, cell-based
Conditions: human, 12 h, 10 µM, compound concentration 10 uM, replicate number 1
Property name: Growth Rate
Note: the reply should be a number with no unit written.

INPUT: # lookup: Growth Rate of CN1[C@@H](CC(=O)c2ccccc2)CCC[C@H]1C[C@H](O)c1ccccc1.Cl [LOBELINE HYDROCHLORIDE]
OUTPUT: 0.92

New cases:
INPUT: # lookup: Growth Rate of Cc1c(N2CCNCC2)nc2ccc(Br)cc2c1C(=O)NC[C@H](CCC(=O)O)c1ccccc1Cl [BAY-403]
OUTPUT: 0.84

INPUT: # lookup: Growth Rate of CP(C)(=O)c1ccc(CNC(=O)C2CCN(S(=O)(=O)c3cc(Cl)cc(Cl)c3)CC2)cc1
OUTPUT: 0.74

INPUT: # lookup: Growth Rate of CC(C)[C@H](C(=O)Nc1ccc(C(=O)NO)cc1)c1ccccc1 [AR-42]
OUTPUT: 0.83

INPUT: # lookup: Growth Rate of CC1(C)C[C@@H]1C(=O)N/C(=C\CCCCSC[C@H](N)C(=O)O)C(=O)O [CILASTATIN]
OUTPUT: 0.97

INPUT: # lookup: Growth Rate of NC(=O)c1ccc2[nH]c(-c3ccc(Oc4ccc(Cl)cc4)cc3)nc2c1
OUTPUT: 0.47
